B1: ZNF193 (parent)
chain: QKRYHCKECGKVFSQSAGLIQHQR

variants of: B1; assay: protein stability index of a GFP-peptide fusion (GPS, HEK-293T) (PSI 1-6); higher = more stable; details: c terminus: a fixed tail appended;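 also: lentivirally expressed fusions sorted by FACS into six bins by GFP to DsRed ratio, PSI derived from sequencing read proportions per bin multiplied by bin number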
Is protein stability index at least 3? Then Fulfilled. If not, Not fulfilled.

Record excerpt, results attached:
Y4S
Not fulfilled
R3N
Not fulfilled
R24N
Not fulfilled

// query Would you say "G18D" shows protein stability index at minimum 3?
// result Fulfilled

// query Determine whether measured protein stability index meets or exceeds 3 for "C6I"
// result Not fulfilled

// query Is it the case that "V12Q" has protein stability index reaching or exceeding 3?
// result Not fulfilled

// query // inclusive: protein stability index at least 3? input: "H5A"
// result Fulfilled

// query Textbook exercise: given the entry "F13C" , state whether its protein stability index is greater than or equal to 3.
// result Not fulfilled

// query Is the recorded value of protein stability index equal to or greater than 3 for this variant? "H5Q"
// result Fulfilled
